B1: IKZF1 (parent)
chain: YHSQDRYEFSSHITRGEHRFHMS

Variants of: B1
Assay: protein stability index of a GFP-peptide fusion (GPS, HEK-293T) (PSI 1-6); higher = more stable;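 further: lentivirally expressed fusions sorted by FACS into six bins by GFP to DsRed ratio, PSI derived from sequencing read proportions per bin multiplied by bin number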
Details: c terminus: native
// NOT MET strictly below 2 in protein stability index; MET otherwise

{"columns": ["Variant Description", "Category"],
 "data": [
  ["H21N", "MET"],
  ["I13R", "NOT MET"],
  ["G16A", "NOT MET"],
  ["S11H", "NOT MET"],
  ["E8R", "NOT MET"],
  ["R15L", "MET"],
  ["R6M", "MET"],
  ["R15Q", "MET"],
  ["S11I", "NOT MET"],
  ["M22C", "MET"],
  ["G16Q", "NOT MET"],
  ["H18Y", "NOT MET"],
  ["H18W", "MET"],
  ["R19H", "NOT MET"],
  ["E8M", "MET"],
  ["S3A", "MET"],
  ["F20M", "NOT MET"],
  ["S3D", "MET"],
  ["S23M", "NOT MET"],
  ["F9C", "MET"]
]}
